target: Vascular endothelial growth factor receptor 2 (Homo sapiens); assay: Inhibition of VEGFR2 phosphorylation (unknown origin) by cell based assay
Sequence (P35968 whole entry): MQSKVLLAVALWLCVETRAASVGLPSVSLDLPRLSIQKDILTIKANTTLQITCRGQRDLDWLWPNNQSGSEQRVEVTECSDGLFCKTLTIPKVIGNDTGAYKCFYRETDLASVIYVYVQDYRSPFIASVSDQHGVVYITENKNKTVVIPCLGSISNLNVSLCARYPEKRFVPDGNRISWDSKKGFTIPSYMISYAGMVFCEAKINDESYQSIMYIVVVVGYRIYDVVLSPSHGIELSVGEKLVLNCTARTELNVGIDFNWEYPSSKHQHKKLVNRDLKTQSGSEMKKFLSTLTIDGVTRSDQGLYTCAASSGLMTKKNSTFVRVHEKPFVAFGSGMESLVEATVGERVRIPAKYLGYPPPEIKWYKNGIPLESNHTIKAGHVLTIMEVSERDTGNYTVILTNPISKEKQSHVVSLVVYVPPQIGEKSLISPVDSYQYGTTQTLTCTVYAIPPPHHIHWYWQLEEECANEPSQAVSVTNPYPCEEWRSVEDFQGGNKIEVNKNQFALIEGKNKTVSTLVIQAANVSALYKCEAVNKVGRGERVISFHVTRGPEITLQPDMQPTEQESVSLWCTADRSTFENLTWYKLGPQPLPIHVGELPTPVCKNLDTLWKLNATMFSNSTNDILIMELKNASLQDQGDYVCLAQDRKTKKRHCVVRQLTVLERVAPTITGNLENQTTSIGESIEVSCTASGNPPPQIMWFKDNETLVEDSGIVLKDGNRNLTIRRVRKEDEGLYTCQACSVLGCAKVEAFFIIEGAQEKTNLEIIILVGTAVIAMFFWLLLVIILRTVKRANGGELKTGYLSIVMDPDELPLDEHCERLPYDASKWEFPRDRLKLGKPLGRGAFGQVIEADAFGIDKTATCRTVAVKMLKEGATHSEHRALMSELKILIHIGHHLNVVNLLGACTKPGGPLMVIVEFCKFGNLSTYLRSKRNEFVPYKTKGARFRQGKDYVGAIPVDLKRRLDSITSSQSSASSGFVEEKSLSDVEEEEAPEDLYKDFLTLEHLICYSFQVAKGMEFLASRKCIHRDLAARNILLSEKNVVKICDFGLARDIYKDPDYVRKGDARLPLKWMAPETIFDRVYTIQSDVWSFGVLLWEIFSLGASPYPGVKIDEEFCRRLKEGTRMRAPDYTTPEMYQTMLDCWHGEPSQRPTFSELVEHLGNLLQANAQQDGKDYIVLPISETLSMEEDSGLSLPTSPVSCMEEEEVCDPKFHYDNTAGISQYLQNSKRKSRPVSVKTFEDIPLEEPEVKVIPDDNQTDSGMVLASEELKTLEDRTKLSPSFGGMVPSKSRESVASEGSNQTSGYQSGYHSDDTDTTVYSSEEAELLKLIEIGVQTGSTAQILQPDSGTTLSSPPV
Item-by-item account of IC50

{"Compound": "Nc1nccn2c1c(-c1cc3cccc(Cl)c3[nH]1)nc2[C@H]1CC[C@H](C(=O)O)CC1", "IC50": "> 40 µM"}
{"Compound": "COc1cccc2cc(-c3nc([C@H]4CC[C@H](C(=O)O)CC4)n4ncnc(N)c34)[nH]c12 [OSI-027]", "IC50": "> 40 µM"}

====

target: DNA-dependent protein kinase catalytic subunit (Homo sapiens, UniProt P78527); assay: Inhibition of DNA-PK (unknown origin) assessed as reduction in phosphorylated RPA32 level by cell based assay
Experimental endpoint: IC50

{"Compound string": "Nc1nccn2c1c(-c1cc3cccc(Cl)c3[nH]1)nc2[C@H]1CC[C@H](C(=O)O)CC1", "Measurement target": "DNA-dependent protein kinase catalytic subunit (Homo sapiens, UniProt P78527)", "Assay value": "> 40 µM"}

====

Item-by-item account of pIC50
biological target: UniProtKB P12931; assay: Inhibition of SRC (unknown origin) assessed as reduction in phosphorylated FAK level by cell based assay
Sequence (P12931 2-536 limits assumed): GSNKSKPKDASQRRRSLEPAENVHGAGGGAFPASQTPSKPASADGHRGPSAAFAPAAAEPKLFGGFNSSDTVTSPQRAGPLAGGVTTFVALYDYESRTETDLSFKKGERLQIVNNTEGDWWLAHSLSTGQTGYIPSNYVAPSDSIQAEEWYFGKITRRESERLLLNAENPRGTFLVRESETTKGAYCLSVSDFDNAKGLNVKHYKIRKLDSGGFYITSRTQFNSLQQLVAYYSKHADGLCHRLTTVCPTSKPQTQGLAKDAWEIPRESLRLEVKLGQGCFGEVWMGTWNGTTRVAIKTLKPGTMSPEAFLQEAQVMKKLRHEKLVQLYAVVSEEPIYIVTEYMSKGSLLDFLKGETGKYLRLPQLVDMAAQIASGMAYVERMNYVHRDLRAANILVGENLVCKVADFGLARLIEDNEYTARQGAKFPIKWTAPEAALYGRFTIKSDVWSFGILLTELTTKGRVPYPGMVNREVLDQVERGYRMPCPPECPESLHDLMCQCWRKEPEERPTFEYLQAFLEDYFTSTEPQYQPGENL
pIC50: −log10 of the molar value.

{"Compound string": "COc1cccc2cc(-c3nc([C@H]4CC[C@H](C(=O)O)CC4)n4ncnc(N)c34)[nH]c12", "Measurement target": "UniProtKB P12931", "pIC50": "< 4.40"}
{"Compound string": "Nc1nccn2c1c(-c1cc3cccc(Cl)c3[nH]1)nc2[C@H]1CC[C@H](C(=O)O)CC1", "Measurement target": "UniProtKB P12931", "pIC50": "< 4.40"}

====

target: Ephrin type-A receptor 2 (Homo sapiens, UniProt P29317)
Sequence (P29317 whole entry): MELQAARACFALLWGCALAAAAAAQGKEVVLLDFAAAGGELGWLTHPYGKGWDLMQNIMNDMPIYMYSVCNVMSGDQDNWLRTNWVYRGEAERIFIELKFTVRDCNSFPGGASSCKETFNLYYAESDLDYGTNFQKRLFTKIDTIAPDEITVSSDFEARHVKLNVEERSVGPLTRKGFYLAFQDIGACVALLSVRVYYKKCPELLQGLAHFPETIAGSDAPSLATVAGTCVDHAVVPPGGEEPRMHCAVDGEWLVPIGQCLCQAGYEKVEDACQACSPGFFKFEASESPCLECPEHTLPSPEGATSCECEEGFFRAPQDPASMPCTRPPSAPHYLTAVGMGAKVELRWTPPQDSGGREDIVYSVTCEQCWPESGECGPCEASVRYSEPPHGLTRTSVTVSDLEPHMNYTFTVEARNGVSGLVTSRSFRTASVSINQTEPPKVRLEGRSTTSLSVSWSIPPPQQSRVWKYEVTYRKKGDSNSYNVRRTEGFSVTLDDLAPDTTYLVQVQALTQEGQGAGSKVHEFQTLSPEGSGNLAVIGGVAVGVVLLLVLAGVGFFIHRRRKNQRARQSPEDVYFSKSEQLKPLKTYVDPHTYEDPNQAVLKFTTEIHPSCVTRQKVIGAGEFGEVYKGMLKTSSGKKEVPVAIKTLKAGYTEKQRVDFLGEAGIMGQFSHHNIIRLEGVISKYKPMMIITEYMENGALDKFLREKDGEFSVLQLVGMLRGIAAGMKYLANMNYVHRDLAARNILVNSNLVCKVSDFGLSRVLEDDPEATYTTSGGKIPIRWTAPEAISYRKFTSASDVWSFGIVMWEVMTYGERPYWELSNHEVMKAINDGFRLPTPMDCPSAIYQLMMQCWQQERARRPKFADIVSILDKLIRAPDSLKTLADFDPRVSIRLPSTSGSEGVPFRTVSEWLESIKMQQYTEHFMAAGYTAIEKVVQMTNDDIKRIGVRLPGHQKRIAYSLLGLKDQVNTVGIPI
pIC50: −log10 of the molar value.

{"Compound string": "COc1cccc2cc(-c3nc([C@H]4CC[C@H](C(=O)O)CC4)n4ncnc(N)c34)[nH]c12", "pIC50": "< 4.40"}

====

Item-by-item account of pIC50
biological target: UniProtKB P42345; test: Competitive inhibition of mTORC2 immunoprecipitated from human HeLa cells using His-tagged 4E-BP1 as substrate incubated for 30 mins in presence of ATP by chemiluminescence based ELISA
pIC50: −log10 of the molar value.

{"Compound string": "Nc1nccn2c1c(-c1cc3cccc(Cl)c3[nH]1)nc2[C@H]1CC[C@H](C(=O)O)CC1", "pIC50": 8.15}
{"Compound string": "COc1cccc2cc(-c3nc([C@H]4CC[C@H](C(=O)O)CC4)n4ncnc(N)c34)[nH]c12", "pIC50": 7.19}

====

Item-by-item account of IC50
target: mTORC1 (Homo sapiens, UniProt P42345); experiment: Competitive inhibition of mTORC1 immunoprecipitated from human HeLa cells using His-tagged 4E-BP1 as substrate incubated for 30 mins in presence of ATP by chemiluminescence based ELISA
Experimental endpoint: IC50 (nM)

{"Compound string": "Nc1nccn2c1c(-c1cc3cccc(Cl)c3[nH]1)nc2[C@H]1CC[C@H](C(=O)O)CC1", "Assay value": 29}
{"Compound string": "COc1cccc2cc(-c3nc([C@H]4CC[C@H](C(=O)O)CC4)n4ncnc(N)c34)[nH]c12", "Assay value": 22}

====

molecular target: Phosphatidylinositol 4,5-bisphosphate 3-kinase catalytic subunit gamma isoform (Homo sapiens, UniProt P48736); assay: Inhibition of PI3Kgamma (unknown origin) in presence of ATP by HTRF assay
Sequence (P48736 whole entry, canonical isoform): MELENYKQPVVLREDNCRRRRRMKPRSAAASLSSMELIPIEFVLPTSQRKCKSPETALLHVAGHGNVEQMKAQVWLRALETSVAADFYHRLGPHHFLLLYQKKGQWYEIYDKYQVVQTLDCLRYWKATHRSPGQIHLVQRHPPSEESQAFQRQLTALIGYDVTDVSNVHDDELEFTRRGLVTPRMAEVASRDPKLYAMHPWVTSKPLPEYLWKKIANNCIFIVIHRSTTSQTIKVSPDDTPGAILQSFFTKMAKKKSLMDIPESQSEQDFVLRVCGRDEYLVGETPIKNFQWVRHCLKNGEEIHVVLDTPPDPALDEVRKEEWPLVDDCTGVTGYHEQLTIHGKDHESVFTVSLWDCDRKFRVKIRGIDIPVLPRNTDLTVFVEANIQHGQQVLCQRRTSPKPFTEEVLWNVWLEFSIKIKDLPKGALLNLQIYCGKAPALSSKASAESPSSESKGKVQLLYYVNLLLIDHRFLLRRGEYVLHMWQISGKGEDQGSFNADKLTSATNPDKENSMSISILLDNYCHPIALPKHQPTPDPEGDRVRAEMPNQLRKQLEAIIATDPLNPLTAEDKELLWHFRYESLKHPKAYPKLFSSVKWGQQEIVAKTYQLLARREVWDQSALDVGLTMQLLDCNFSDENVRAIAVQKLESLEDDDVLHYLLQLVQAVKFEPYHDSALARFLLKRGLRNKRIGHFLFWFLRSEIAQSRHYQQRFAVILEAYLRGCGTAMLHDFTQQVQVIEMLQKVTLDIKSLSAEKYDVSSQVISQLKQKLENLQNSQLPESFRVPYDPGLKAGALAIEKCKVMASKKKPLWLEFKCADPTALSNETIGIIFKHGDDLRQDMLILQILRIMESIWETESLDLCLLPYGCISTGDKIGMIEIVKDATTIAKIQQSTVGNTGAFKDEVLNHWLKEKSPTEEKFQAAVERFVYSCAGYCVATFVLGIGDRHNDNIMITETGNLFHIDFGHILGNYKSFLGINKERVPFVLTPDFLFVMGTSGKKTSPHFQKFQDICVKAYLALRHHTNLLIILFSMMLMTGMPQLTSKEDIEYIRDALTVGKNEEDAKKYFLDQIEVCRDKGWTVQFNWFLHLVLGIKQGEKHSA
pIC50: −log10 of the molar value.
Experimental endpoint: pIC50

{"Compound string": "Nc1nccn2c1c(-c1cc3cccc(Cl)c3[nH]1)nc2[C@H]1CC[C@H](C(=O)O)CC1", "Assay value": 6.34}
{"Compound string": "COc1cccc2cc(-c3nc([C@H]4CC[C@H](C(=O)O)CC4)n4ncnc(N)c34)[nH]c12", "Assay value": 6.38}

All values here come from ChEMBL document CHEMBL5653605.
